- Assayed target: ALK5 (Homo sapiens (Human), UniProt P36897)
- Sequence (P36897 34-503): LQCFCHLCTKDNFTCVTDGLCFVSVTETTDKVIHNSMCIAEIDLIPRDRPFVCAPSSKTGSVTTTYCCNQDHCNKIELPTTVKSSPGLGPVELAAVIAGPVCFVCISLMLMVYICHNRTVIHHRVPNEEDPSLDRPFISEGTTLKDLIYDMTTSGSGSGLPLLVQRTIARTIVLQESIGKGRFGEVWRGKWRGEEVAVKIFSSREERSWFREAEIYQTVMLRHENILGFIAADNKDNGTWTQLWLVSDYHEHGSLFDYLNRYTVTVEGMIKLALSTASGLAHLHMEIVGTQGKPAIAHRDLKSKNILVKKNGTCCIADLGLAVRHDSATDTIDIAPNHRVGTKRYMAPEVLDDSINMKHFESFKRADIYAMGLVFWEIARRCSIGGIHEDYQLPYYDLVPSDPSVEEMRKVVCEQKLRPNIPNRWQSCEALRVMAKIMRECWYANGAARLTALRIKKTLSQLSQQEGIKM
- Method description: Cell-free assay for inhibition of ALK5 kinase phosphorylation
- Format: biochemical
- Experimental conditions: read-out: IC50 on ALK5 kinase phosphorylation
Endpoint name: IC50

Just so you know, measured IC50 for Cc1cccc(-c2[nH]c(CNc3cccc(C#N)c3C#N)nc2-c2ccc3ncnn3c2)n1 came out at 20.6 nM

Just so you know, measured IC50 for Cc1cccc(-c2[nH]c(CNc3cccc(Br)c3)nc2-c2ccc3ncnn3c2)n1 came out at 4.53 nM

Just so you know, measured IC50 for Cc1ccc(NCc2nc(-c3ccc4ncnn4c3)c(-c3cccc(C)n3)[nH]2)cc1 came out at 15.6 nM

Just so you know, measured IC50 for Cc1cccc(-c2[nH]c(COc3cccc(C#N)c3)nc2-c2ccc3ncnn3c2)n1 came out at 23.9 nM

Just so you know, measured IC50 for Cc1cccc(-c2[nH]c(CNc3cccc(F)c3)nc2-c2ccc3ncnn3c2)n1 came out at 9.41 nM

Just so you know, measured IC50 for Cc1cc(C)cc(NCc2nc(-c3ccc4ncnn4c3)c(-c3cccc(C)n3)[nH]2)c1 came out at 14.3 nM

Just so you know, measured IC50 for Cc1cccc(-c2[nH]c(CNc3ccccc3C(N)=O)nc2-c2ccc3ncnn3c2)n1 came out at 29.7 nM

Just so you know, measured IC50 for Cc1cccc(-c2[nH]c(CSc3ccccc3)nc2-c2ccc3ncnn3c2)n1 came out at 20.7 nM

Just so you know, measured IC50 for Cc1cccc(-c2[nH]c(CNc3cccc(C#N)c3)nc2-c2ccc3ncnn3c2)n1 came out at 4.83 nM

Just so you know, measured IC50 for COc1cccc(NCc2nc(-c3ccc4ncnn4c3)c(-c3cccc(C)n3)[nH]2)c1OC came out at 57.5 nM

Just so you know, measured IC50 for CSc1cccc(NCc2nc(-c3ccc4ncnn4c3)c(-c3cccc(C)n3)[nH]2)c1 came out at 6.7 nM

Just so you know, measured IC50 for Cc1cccc(-c2[nH]c(CNc3ccccc3Br)nc2-c2ccc3ncnn3c2)n1 came out at 6.54 nM

Just so you know, measured IC50 for Cc1cccc(-c2[nH]c(CNc3ccccc3)nc2-c2ccc3ncnn3c2)n1 came out at 13.1 nM

Just so you know, measured IC50 for Cc1cccc(-c2[nH]c(COc3ccccc3F)nc2-c2ccc3ncnn3c2)n1 came out at 25.4 nM

Just so you know, measured IC50 for Cc1cccc(-c2[nH]c(Cc3ccccc3)nc2-c2ccc3ncnn3c2)n1 came out at 19.8 nM

Just so you know, measured IC50 for COC(=O)c1ccc(NCc2nc(-c3ccc4ncnn4c3)c(-c3cccc(C)n3)[nH]2)cc1 came out at 78 nM

Just so you know, measured IC50 for CC(=O)c1ccc(NCc2nc(-c3ccc4ncnn4c3)c(-c3cccc(C)n3)[nH]2)cc1 came out at 59.1 nM

###

- Assayed target: ALK5 (Homo sapiens (Human), UniProt P36897)
- Method description: Cell-free assay for inhibition of ALK5 kinase phosphorylation
- Type: biochemical
- Experimental conditions: read-out: IC50 on ALK5 kinase phosphorylation
Would you kindly list IC50 for each of these compounds?
Just the number in nM, nothing appended.

Just so you know, measured IC50 for COc1cc(NCc2nc(-c3ccc4ncnn4c3)c(-c3cccc(C)n3)[nH]2)cc(OC)c1 came out at 14.4

Just so you know, measured IC50 for Cc1cccc(-c2[nH]c(CNc3ccc(C(C)C)cc3)nc2-c2ccc3ncnn3c2)n1 came out at 46

Just so you know, measured IC50 for Cc1cccc(-c2[nH]c(CNc3ccc(Br)cc3)nc2-c2ccc3ncnn3c2)n1 came out at 17.1

Just so you know, measured IC50 for COc1cccc(NCc2nc(-c3ccc4ncnn4c3)c(-c3cccc(C)n3)[nH]2)c1 came out at 14.3

Just so you know, measured IC50 for Cc1cccc(-c2[nH]c(CNc3ccc(F)cc3)nc2-c2ccc3ncnn3c2)n1 came out at 17.4

Just so you know, measured IC50 for COCc1cccc(NCc2nc(-c3ccc4ncnn4c3)c(-c3cccc(C)n3)[nH]2)c1 came out at 15.3

Just so you know, measured IC50 for Cc1cccc(-c2[nH]c(CNc3cccc(Cl)c3)nc2-c2ccc3ncnn3c2)n1 came out at 6.16

Just so you know, measured IC50 for Cc1cccc(-c2[nH]c(CNc3ccccc3NS(C)(=O)=O)nc2-c2ccc3ncnn3c2)n1 came out at 15.3
